These measurements were taken from the NIST ThermoML archive (doi:10.1007/s10765-007-0223-x).

STATED CONDITIONS: 298.15 K; 101 kPa; Liquid
mass density for assorted compounds
MEASUREMENT NAME: mass density (kg/m3)

• CC(C)CC(C)(C)C = 687.749
• COC(C)(C)C = 734.406
• Cc1ccccc1 = 862.173
• c1ccccc1 = 873.52
• CCc1ccccc1 = 862.459

----------
STATED CONDITIONS: 293.15 K; 101 kPa; Liquid; Single path-length method
Form field: speed of sound (one value per entry).
MEASUREMENT NAME: speed of sound (m/s)

- CC(C)CC(C)(C)C: 1103.3
- CCc1ccccc1: 1339.4
- Cc1ccccc1: 1325.3
- c1ccccc1: 1321.6

----------
Quick list: speed of sound per entry.
STATED CONDITIONS: 300.65 K; 101 kPa; Liquid; Single path-length method
MEASUREMENT NAME: speed of sound (m/s)

* COC(C)(C)C | 1025.4
* Cc1ccccc1 | 1292.6
* c1ccccc1 | 1286.7
* CCc1ccccc1 | 1307.9
* CC(C)CC(C)(C)C | 1071.7
